# Lookup of reported inhibition of CyB5R3, primary screen keyed by entry
Molecular target: purified human CyB5R3 (Homo sapiens, UniProt P00387)
Construct: His6 (N); made in house; host or cells: E. coli SoluBL21 (Genlantis)
Sequence (P00387 whole entry): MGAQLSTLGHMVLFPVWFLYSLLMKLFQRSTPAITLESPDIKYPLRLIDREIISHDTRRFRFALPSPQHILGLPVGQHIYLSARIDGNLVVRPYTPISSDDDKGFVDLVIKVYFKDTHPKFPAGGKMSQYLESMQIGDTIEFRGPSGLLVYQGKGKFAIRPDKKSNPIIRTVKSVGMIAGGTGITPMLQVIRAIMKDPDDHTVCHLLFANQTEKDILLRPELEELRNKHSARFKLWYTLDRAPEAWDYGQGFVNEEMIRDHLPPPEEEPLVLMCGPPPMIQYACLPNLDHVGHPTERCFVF
Test: NADH-ferricyanide reductase activity inhibition assay with purified Cyb5R3
Format: biochemical
Settings: 500 μM of each compound
Quick reminder: number only, in %, skip the unit.

Some solved cases for reference:
>  <compound>
CCCCCOc1cc(=O)[nH]c(=S)[nH]1 [ZINC13957379]

>  <inhibition of CyB5R3, primary screen (%)>
100

$$$$
>  <compound>
O=c1cc(CSc2ccccc2)[nH]c(=S)[nH]1 [ZINC05626394]

>  <inhibition of CyB5R3, primary screen (%)>
100

$$$$
>  <compound>
CC(C)SCc1cc(=O)[nH]c(=S)[nH]1 [ZINC31773411]

>  <inhibition of CyB5R3, primary screen (%)>
100

$$$$

Then this compound:
Task: Give inhibition of CyB5R3, primary screen for O=c1cc(CSc2ccccc2)[nH]c(=O)[nH]1 [ZINC17744101]
Result: 100
